# credit: patent US11981658B2

Molecular target: EGFR L858R/T790M/C797S (Homo sapiens, UniProt P00533, C797S/L858R/T790M)
Sequence (P00533 25-1210 T790M/C797S/L858R): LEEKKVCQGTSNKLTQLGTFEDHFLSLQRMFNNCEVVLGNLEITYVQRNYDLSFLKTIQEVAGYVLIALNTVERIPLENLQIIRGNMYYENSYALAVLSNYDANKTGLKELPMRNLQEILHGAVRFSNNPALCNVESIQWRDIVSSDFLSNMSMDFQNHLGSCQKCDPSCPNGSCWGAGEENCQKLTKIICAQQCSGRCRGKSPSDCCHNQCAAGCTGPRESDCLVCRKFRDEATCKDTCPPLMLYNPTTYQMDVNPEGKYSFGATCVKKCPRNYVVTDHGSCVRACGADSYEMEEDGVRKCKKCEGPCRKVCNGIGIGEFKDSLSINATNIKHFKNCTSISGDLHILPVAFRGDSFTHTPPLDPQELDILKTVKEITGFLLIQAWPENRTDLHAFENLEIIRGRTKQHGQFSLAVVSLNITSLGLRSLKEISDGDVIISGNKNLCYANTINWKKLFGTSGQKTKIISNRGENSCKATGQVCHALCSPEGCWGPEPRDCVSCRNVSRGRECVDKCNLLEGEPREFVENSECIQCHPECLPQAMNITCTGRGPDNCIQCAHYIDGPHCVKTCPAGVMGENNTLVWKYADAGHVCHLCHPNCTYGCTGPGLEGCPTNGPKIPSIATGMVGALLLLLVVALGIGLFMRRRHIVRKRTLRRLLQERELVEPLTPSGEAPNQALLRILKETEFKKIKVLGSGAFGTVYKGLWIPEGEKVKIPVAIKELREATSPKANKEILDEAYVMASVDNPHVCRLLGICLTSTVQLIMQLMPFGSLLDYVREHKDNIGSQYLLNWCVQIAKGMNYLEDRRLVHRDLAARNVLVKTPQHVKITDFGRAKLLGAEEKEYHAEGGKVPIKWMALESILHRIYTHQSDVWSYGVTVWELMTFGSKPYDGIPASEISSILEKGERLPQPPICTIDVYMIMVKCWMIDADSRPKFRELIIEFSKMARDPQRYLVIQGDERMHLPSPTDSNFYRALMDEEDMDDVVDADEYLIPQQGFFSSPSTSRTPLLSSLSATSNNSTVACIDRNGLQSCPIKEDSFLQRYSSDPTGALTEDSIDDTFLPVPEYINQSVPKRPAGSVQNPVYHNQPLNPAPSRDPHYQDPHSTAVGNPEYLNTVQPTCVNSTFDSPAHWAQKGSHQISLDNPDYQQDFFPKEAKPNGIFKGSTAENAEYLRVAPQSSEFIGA
Assay: Biochemical EGFR kinase inhibition assay (Lance Ultra TR-FRET), triple mutant L858R/T790M/C797S
Conditions: Km ATP; read-out: IC50 L858R/T790M/C797S (nM), Km ATP
Protocol: Biochemical EGFR kinase assays were conducted using Lance Ultra time-resolved fluorescence resonance energy transfer (TR-FRET) technology from Perkin-Elmer. […] Each kinase reactions were incubated at room temperature for 1 hour and then stopped by the addition of 4 μL of stop solution (10 mM EDTA). […] After 60 minutes incubation at room temperature the LANCE signal was measured on an EnVision Multilabel Reader (Perkin-Elmer). […]
MEASURED_ATTRIBUTE: IC50 (nM)

Consider the worked cases shown below.
>  <MOLECULE>
O=C(c1ccc(C#Cc2cnc(Nc3ccnc(-c4cnn(S(=O)(=O)C5CC5)c4)n3)cc2N2CCC[C@H](O)C2)cc1)N1CCC(O)CC1

>  <IC50 [nM]>
0.1

$$$$
>  <MOLECULE>
O=S(=O)(C1CC1)n1cc(-c2nccc(Nc3cc(N4CCC(F)(CO)CC4)c(C#Cc4cnn(CC(F)(F)F)c4)cn3)n2)cn1

>  <IC50 [nM]>
0.2

$$$$
>  <MOLECULE>
CS(=O)(=O)N1CCC(C#Cc2cnc(Nc3ccnc(-c4cnn(S(=O)(=O)C5CC5)c4)n3)cc2NC2CCC(O)CC2)C1 (stereo not shown)

>  <IC50 [nM]>
0.8

$$$$
>  <MOLECULE>
CC1(CO)CCN(c2cc(Nc3ccnc(-c4cnn(S(=O)(=O)C5CC5)c4)n3)ncc2C#CC2CCO[C@H]2C(F)(F)F)CC1 (stereo partly shown)

>  <IC50 [nM]>
0.8

$$$$
>  <MOLECULE>
O=S(=O)(C1CC1)n1cc(-c2nccc(Nc3cc(NCC4CCC(O)CC4)c(C#CC4CCCO4)cn3)n2)cn1 (stereo not shown)

>  <IC50 [nM]>
1.3

$$$$
>  <MOLECULE>
CC1(CO)CCN(c2cc(Nc3ccnc(-c4cnn(S(=O)(=O)C5CC5)c4)n3)ncc2C#Cc2cnn(CC(F)(F)F)c2)CC1

>  <IC50 [nM]>
1.4

$$$$

a: CN(C)CCC1CCN(c2cc(Nc3ccnc(-c4cnn(S(=O)(=O)C5CC5)c4)n3)ncc2C#Cc2cnn(CC(F)(F)F)c2)CC1
b: CC1OCCC1C#Cc1cnc(Nc2ccnc(-c3cnn(S(=O)(=O)C4CC4)c3)n2)cc1NC1CCC(O)CC1 (stereo not shown)
c: CC1(CO)CCN(c2cc(Nc3ccnc(N4CCN(S(=O)(=O)C5CC5)CC4)n3)ncc2C#Cc2cnn(C(F)(F)F)c2)CC1
d: O=S(=O)(C1CC1)n1cc(-c2nccc(Nc3cc(NC4CCC(O)CC4)c(C#CC4(O)CCOC4)cn3)n2)cn1 (stereo not shown)
Please put the entries in order of rising IC50. The reply should contain the labels ordered as requested. d, b, a, c

###

A collection of compounds and their measured IC50
Biological target: EGFR wildtype (WT) (Homo sapiens)
Experiment: Biochemical EGFR kinase inhibition assay (Lance Ultra TR-FRET), wildtype
Conditions: IC50 WT (nM), 100 μM ATP

Consider the worked cases shown below.
>  <COMPOUND>
O=S1(=O)CCC(C#Cc2cnc(Nc3ccnc(-c4cnn(S(=O)(=O)C5CC5)c4)n3)cc2NC2CCC(CO)CC2)C1 (stereo not drawn) [Example 428]

>  <RESULT>
> 10000 nM

$$$$
>  <COMPOUND>
CN(C)CCNC1CCN(c2cc(Nc3ccnc(-c4cnn(S(=O)(=O)C5CC5)c4)n3)ncc2C#Cc2cnn(C(F)(F)F)c2)CC1 [Example 143]

>  <RESULT>
> 10000 nM

$$$$

Okay, now this compound:
Form: Entry = O=S(=O)(C1CC1)n1cc(-c2nccc(Nc3cc(N4CCC(F)CC4)c(C#Cc4cnn(C5CCOCC5)c4)cn3)n2)cn1 [Example 97] | System = EGFR wildtype (WT) (Homo sapiens) | IC50 = ____ > 10000 nM

###

Biological target: EGFR L858R/T790M/C797S (Homo sapiens, UniProt P00533, C797S/L858R/T790M)
Assay: Biochemical EGFR kinase inhibition assay (Lance Ultra TR-FRET), triple mutant L858R/T790M/C797S
Conditions: Km ATP; read-out: IC50 L858R/T790M/C797S (nM) Km ATP
MEASURED_ATTRIBUTE: IC50 (nM)

Consider the worked cases shown below.
>  <COMPOUND>
Cn1cc(C#Cc2cnc(Nc3ccnc(-c4cnn(S(=O)(=O)C5CC5)c4)n3)cc2N2CCC(C)(CO)CC2)cn1

>  <DISPLAY_UNIT>
nM

>  <QUANTITATIVE_READOUT>
0.3

$$$$
>  <COMPOUND>
CC1(CO)CCN(c2cc(Nc3ccnc(-c4cnn(S(=O)(=O)C5CC5)c4)n3)ncc2C#Cc2cnn(CCN3CCOCC3)c2)CC1

>  <DISPLAY_UNIT>
nM

>  <QUANTITATIVE_READOUT>
0.5

$$$$
>  <COMPOUND>
CN(C)C[C@H]1CC[C@H](COc2cc(Nc3ccnc(-c4cnn(S(=O)(=O)C5CC5)c4)n3)ncc2C#Cc2cnn(C3CC3)c2)CC1

>  <DISPLAY_UNIT>
nM

>  <QUANTITATIVE_READOUT>
0.1

$$$$
>  <COMPOUND>
CN(C)CCNC1CCN(c2cc(Nc3ccnc(-c4cnn(S(=O)(=O)C5CC5)c4)n3)ncc2C#Cc2cnn(C(F)(F)F)c2)CC1

>  <DISPLAY_UNIT>
nM

>  <QUANTITATIVE_READOUT>
0.3

$$$$
>  <COMPOUND>
Cn1cc(C#Cc2cnc(Nc3ccnc(-c4cnn(S(=O)(=O)C5CC5)c4)n3)cc2N2CCCC(CO)CC2)cn1 (stereo not shown)

>  <DISPLAY_UNIT>
nM

>  <QUANTITATIVE_READOUT>
0.7

$$$$
>  <COMPOUND>
Cn1cc(C#Cc2cnc(Nc3ccnc(-c4cnn(S(=O)(=O)C5CC5)c4)n3)cc2N2CC(C(C)(C)O)C2)cn1

>  <DISPLAY_UNIT>
nM

>  <QUANTITATIVE_READOUT>
2.4

$$$$
>  <COMPOUND>
COC1CCN(c2cc(Nc3ccnc(-c4cnn(S(=O)(=O)C5CC5)c4)n3)ncc2C#Cc2cnn(C3CCN(C(C)=O)CC3)c2)CC1

>  <DISPLAY_UNIT>
nM

>  <QUANTITATIVE_READOUT>
0.8

$$$$
>  <COMPOUND>
CN(C)CCCn1cc(C#Cc2cnc(Nc3ccnc(-c4cnn(S(=O)(=O)C5CC5)c4)n3)cc2N2CCC(C)(CO)CC2)cn1

>  <DISPLAY_UNIT>
nM

>  <QUANTITATIVE_READOUT>
0.3

$$$$

I: COC1CCN(c2cc(Nc3ccnc(-c4cnn(S(=O)(=O)C5CC5)c4)n3)ncc2C#Cc2cnn(C3CCOCC3)c2)CC1
II: CN(C)CCCn1cc(C#Cc2cnc(Nc3ccnc(-c4cnn(S(=O)(=O)C5CC5)c4)n3)cc2N2CCC(F)(CO)CC2)cn1
Lab note: check whether I or II has the lower measured IC50. Refer to your chosen entry by its label in the reply. II

###

Target: EGFR Del19/T790M/C797S (Homo sapiens, UniProt P00533, C797S/DEL746-750/T790M)
Sequence (P00533 with tags, fused parts or gaps DEL746-750/T790M/C797S): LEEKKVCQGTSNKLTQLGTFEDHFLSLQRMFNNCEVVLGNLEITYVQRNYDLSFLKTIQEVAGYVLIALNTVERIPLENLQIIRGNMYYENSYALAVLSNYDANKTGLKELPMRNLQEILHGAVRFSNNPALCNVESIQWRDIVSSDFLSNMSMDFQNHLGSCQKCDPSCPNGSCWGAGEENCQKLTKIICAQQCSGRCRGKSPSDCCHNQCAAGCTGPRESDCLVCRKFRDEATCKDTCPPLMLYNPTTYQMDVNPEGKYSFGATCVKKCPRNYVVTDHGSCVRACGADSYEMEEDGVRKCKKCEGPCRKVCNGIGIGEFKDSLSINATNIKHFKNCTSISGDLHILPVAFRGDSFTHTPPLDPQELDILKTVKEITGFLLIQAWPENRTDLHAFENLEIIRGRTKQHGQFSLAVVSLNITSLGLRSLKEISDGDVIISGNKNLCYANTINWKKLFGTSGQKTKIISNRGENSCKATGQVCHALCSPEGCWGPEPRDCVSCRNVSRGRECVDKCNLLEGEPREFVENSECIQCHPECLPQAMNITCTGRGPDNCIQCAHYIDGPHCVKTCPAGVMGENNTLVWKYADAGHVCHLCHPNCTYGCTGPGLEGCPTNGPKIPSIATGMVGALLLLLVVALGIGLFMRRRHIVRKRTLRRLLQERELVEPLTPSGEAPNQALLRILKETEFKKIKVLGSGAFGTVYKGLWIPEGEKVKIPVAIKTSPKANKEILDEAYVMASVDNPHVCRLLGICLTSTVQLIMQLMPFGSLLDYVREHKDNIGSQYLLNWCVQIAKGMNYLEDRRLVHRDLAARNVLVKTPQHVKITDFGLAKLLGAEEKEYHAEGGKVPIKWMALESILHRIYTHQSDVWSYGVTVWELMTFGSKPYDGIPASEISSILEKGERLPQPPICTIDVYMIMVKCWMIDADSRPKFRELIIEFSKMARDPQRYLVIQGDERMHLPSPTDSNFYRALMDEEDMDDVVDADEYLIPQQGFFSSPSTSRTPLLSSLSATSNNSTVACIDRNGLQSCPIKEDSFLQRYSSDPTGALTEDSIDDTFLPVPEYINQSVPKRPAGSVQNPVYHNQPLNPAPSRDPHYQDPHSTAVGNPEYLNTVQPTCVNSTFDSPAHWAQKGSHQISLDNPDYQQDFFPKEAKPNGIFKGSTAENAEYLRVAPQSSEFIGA
Experiment: Biochemical EGFR kinase inhibition assay (Lance Ultra TR-FRET), triple mutant del19/T790M/C797S
Conditions: ATP at Km; read-out: IC50 Del19/T790M/C797S (nM), Km ATP
MEASURED_ATTRIBUTE: IC50 (nM)

>  <COMPOUND>
CN(C)CC1(F)CCN(c2cc(Nc3ccnc(-c4cnn(S(=O)(=O)C5CC5)c4)n3)ncc2C#Cc2cnn(C3CC3)c2)CC1

>  <IC50 / nM>
0.9

$$$$
>  <COMPOUND>
CC1(CO)CCN(c2cc(Nc3ccnc(-c4cnn(S(=O)(=O)C5CC5)c4)n3)ncc2C#Cc2ccc(CN3CCOCC3)nc2)CC1

>  <IC50 / nM>
0.9

$$$$
>  <COMPOUND>
CC1(CO)CCN(c2cc(Nc3ccnc(-c4cnn(S(=O)(=O)C5CC5)c4)n3)ncc2C#Cc2cnn(CC3CCOC3)c2)CC1 (stereo not drawn)

>  <IC50 / nM>
0.9

$$$$

###

A collection of compounds and their measured IC50
Target: EGFR wildtype (WT) (Homo sapiens, UniProt P00533)
Sequence (P00533 25-1210): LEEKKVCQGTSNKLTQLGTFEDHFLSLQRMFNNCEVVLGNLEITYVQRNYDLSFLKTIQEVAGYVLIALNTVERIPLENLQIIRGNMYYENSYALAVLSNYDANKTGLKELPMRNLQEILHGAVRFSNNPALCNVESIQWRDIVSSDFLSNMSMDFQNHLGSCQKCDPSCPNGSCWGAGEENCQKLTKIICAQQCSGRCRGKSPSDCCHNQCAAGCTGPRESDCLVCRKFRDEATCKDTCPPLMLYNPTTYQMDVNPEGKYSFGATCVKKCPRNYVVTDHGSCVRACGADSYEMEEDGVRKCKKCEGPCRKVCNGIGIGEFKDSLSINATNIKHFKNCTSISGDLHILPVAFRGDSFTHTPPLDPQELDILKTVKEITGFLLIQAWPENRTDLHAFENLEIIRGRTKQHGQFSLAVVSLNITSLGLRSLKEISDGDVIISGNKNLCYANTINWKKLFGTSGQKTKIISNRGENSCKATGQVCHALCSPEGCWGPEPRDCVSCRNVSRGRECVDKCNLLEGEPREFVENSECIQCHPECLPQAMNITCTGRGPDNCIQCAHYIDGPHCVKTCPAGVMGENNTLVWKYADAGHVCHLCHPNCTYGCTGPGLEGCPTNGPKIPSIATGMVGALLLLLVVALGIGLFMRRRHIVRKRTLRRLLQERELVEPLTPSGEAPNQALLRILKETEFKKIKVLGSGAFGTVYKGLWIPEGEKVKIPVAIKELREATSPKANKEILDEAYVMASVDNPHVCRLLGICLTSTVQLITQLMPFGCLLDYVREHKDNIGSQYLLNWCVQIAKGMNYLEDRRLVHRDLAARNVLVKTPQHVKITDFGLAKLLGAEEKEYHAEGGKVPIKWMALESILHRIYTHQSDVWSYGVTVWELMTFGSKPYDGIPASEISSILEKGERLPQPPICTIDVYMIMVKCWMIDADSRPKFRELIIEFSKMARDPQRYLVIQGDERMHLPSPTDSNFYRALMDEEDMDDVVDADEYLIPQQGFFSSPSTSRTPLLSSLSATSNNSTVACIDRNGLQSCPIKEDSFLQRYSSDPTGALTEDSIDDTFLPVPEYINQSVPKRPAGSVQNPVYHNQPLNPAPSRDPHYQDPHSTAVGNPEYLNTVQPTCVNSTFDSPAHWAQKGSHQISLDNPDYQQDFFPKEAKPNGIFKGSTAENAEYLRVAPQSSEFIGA
Assay: Biochemical EGFR kinase inhibition assay (Lance Ultra TR-FRET), wildtype
Conditions: IC50 WT (nM), 100 μM ATP

Consider the worked cases shown below.
>  <COMPOUND>
O=S(=O)(C1CC1)n1cc(-c2nccc(Nc3cc(N4CCC(C5(O)CC5)CC4)c(C#Cc4cnn(C(F)(F)F)c4)cn3)n2)cn1

>  <EXPERIMENTAL_TARGET>
EGFR wildtype (WT) (Homo sapiens, UniProt P00533)

>  <MEASURED_ATTRIBUTE>
IC50

>  <RESULT>
> 10000 nM

$$$$
>  <COMPOUND>
O=S(=O)(C1CC1)N1CCC(C#Cc2cnc(Nc3ccnc(-c4cnn(S(=O)(=O)C5CC5)c4)n3)cc2N[C@H]2CC[C@@H](O)CC2)CC1

>  <EXPERIMENTAL_TARGET>
EGFR wildtype (WT) (Homo sapiens, UniProt P00533)

>  <MEASURED_ATTRIBUTE>
IC50

>  <RESULT>
> 10000 nM

$$$$
>  <COMPOUND>
CN(CCO)c1cc(Nc2ccnc(-c3cnn(S(=O)(=O)C4CC4)c3)n2)ncc1C#Cc1cnn(C)c1

>  <EXPERIMENTAL_TARGET>
EGFR wildtype (WT) (Homo sapiens, UniProt P00533)

>  <MEASURED_ATTRIBUTE>
IC50

>  <RESULT>
> 10000 nM

$$$$
>  <COMPOUND>
O=S(=O)(C1CC1)n1cc(-c2nccc(Nc3cc(N4CCC(CCO)CC4)c(C#Cc4cnn(C5CC5(F)F)c4)cn3)n2)cn1 (stereo not drawn)

>  <EXPERIMENTAL_TARGET>
EGFR wildtype (WT) (Homo sapiens, UniProt P00533)

>  <MEASURED_ATTRIBUTE>
IC50

>  <RESULT>
> 10000 nM

$$$$
>  <COMPOUND>
CC(=O)N1CCC(n2cc(C#Cc3cnc(Nc4ccnc(-c5cnn(S(=O)(=O)C6CC6)c5)n4)cc3N[C@H]3CC[C@@H](O)CC3)cn2)CC1

>  <EXPERIMENTAL_TARGET>
EGFR wildtype (WT) (Homo sapiens, UniProt P00533)

>  <MEASURED_ATTRIBUTE>
IC50

>  <RESULT>
> 10000 nM

$$$$

Dear colleague, I am looking for the recorded IC50 of the following compound: O=S(=O)(C1CC1)n1cc(-c2nccc(Nc3cc(NCC4CCC(O)CC4)c(C#CC4CCCO4)cn3)n2)cn1 (stereo not drawn) > 10000 nM

Could you do the same for `CC(C)Nc1cc(Nc2ccnc(-c3cnn(S(=O)(=O)C4CC4)c3)n2)ncc1C#CCCCNC(=O)N1CCOCC1` , please? > 10000 nM

Could you do the same for `O=S(=O)(C1CC1)n1cc(-c2nccc(Nc3cc(N[C@H]4CC[C@@H](O)CC4)c(C#Cc4cnn(C5CCOCC5)c4)cn3)n2)cn1` , please? > 10000 nM

Could you do the same for CN1CCC(C#Cc2cnc(Nc3ccnc(-c4cnn(S(=O)(=O)C5CC5)c4)n3)cc2N2CCC3(CCCO3)CC2)C1 (stereo not drawn) , please? 5110 nM

Could you do the same for `CC1(CO)CCN(c2cc(Nc3ccnc(-c4cnn(S(=O)(=O)C5CC5)c4)n3)ncc2C#CC2COC2)CC1` , please? 820 nM

Could you do the same for `CNCC1(C)CCN(c2cc(Nc3ccnc(-c4cnn(S(=O)(=O)C5CC5)c4)n3)ncc2C#Cc2cnn(C)c2)CC1` , please? 348 nM

Could you do the same for `Cn1cc(C#Cc2cnc(Nc3ccnc(-c4cnn(S(=O)(=O)C5CC5)c4)n3)cc2N2CCC3(CCNC3)CC2)cn1` , please? 2100 nM

Could you do the same for `CC(C)Nc1cc(Nc2ccnc(-c3cnn(S(=O)(=O)C4CC4)c3)n2)ncc1C#Cc1csc(CF)n1` , please? > 10000 nM

Could you do the same for CC(O)CC#Cc1cnc(Nc2ccnc(-c3cnn(S(=O)(=O)C4CC4)c3)n2)cc1N1CCC(C)(CO)CC1 (stereo not drawn) , please? 3190 nM

Could you do the same for `O=S(=O)(C1CC1)N1CCC(C#Cc2cnc(Nc3ccnc(-c4cnn(S(=O)(=O)C5CC5)c4)n3)cc2N[C@H]2CC[C@@H](CO)CC2)CC1` , please? > 10000 nM
